- Read-out: Monokine induced gamma interferon (MIG), CXCL9 (gene 4283)
- measurement.description: BSK_BE3C_MIG: BioMAP Diversity Plus: BE3C Assay for Monokine induced gamma interferon (MIG) Biomarker Activity (AID 2283035)
- assay.setup: primary human bronchial epithelial cells; actives raise or lower the signal
- Description: BSK_BE3C is a cell-based, multiplexed-readout assay that uses bronchial epithelial cell, a human lung primary cell, with measurements taken at 24 hours after chemical dosing in a 96-well plate.BSK_BE3C_MIG is an assay component measured in the BSK_BE3C assay. It measures MIG antibody related to regulation of gene expression using ELISA technology.Data from the assay component BSK_BE3C_MIG was analyzed into 1 assay endpoint. […]
Activity calls are given as the source filed them. How the source made its calls: active means hit-call score of the fitted dose curve at least 0.9, where 1 is the maximum; inactive means score below 0.9.
// one of active, inactive, no free text

| compound | cat |
| --- | --- |
| C1CN(CCOCCN2CCOCC2)CCO1 | inactive |
| CC(C)CC(=O)CC(C)CC(C)C (stereo not given) | active |
| CN(C)CCC(c1ccc(Cl)cc1)c1ccccn1 (stereo not given) | inactive |
| CC(C)C1OCCN1CCOC(=O)NCCCCCCNC(=O)OCCN1CCOC1C(C)C (stereo not given) | inactive |

// next entry
Problem: GET /call?item= CCCCCCCCCCCCCCCCCC[N+](C)(C)C returns the recorded outcome of this test.
Result: active
